B1: Hairpin Ribozyme (parent)
chain: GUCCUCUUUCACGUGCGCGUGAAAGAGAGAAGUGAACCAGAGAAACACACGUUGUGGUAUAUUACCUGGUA

- Variants of: B1
- measurement_description: self-cleavage, relative activity (ratio to wild type); higher = more cleavage; co-transcriptional
recorded_endpoint: self-cleavage

mutation_descriptor: U20G G25C
recorded_endpoint: self-cleavage
result: 0.643
//
mutation_descriptor: A24U G27U
recorded_endpoint: self-cleavage
result: 0.199
//
mutation_descriptor: G25C C50U
recorded_endpoint: self-cleavage
result: 0.192
//
mutation_descriptor: C12G G51A
recorded_endpoint: self-cleavage
result: 0.965
